assay_comment: small molecules captured by biotinylated probe aFSTL3 – biochemical, small-molecule microarray, fluorescence 635/667, stem cell growth factor project, primary screen (AID 1064);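 also: measures binding of the biotinylated anti-FSTL3 antibody to printed compounds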
settings: higher = more signal
composite z-score below -0.04 gives not fulfilled; composite z-score at or above it gives fulfilled.

Enquiry: Given CC[C@@H]1O[Si](C(C)C)(C(C)C)c2c1cc(-c1cc(C)c(OC)c(C)c1)nc2-c1ccc(Oc2ccccc2)cc1 , state whether its composite z-score is at least -0.04.
Return: not fulfilled

Enquiry: Does composite z-score meet or surpass -0.04 for COc1cc(C(O)C2C=CC3C(=O)N(C)C(=O)C3N2Nc2ccccc2)cc(OC)c1OC (stereo not drawn) ?
Return: fulfilled

Enquiry: Does CC(C)C[C@@H]1NC(=O)[C@@H]2C[C@H](C(=O)NCCCCCCN)[C@H](c3cccc(OCCO)c3)N2C1=O have a reported composite z-score of at least -0.04?
Return: fulfilled

Enquiry: Hello, I need to know if CCOC(=O)C[C@H]1[C@H](OC(=O)Cc2ccc3c(c2)OCO3)[C@@H](NC(=O)c2ccc3ccccc3n2)c2cc(OCCCO)ccc2N1C(=O)c1ccccc1 has measured composite z-score not below -0.04. Thanks!
Return: fulfilled

###

system_name: Follistatin (Homo sapiens)
assay_comment: FST protein binding to printed compounds – biochemical, small-molecule microarray, 635/667 nm fluorescence, primary screen (AID 1132)
settings: 635 nm fluorescence, higher = more signal
reported_property: composite z-score

>>> endpoint_value("NC(=O)NCC#Cc1ccc2c(c1)[C@]1(C(=O)N2)[C@H](c2ccccc2OCCO)N2[C@H](c3ccccc3)[C@H](c3ccccc3)OC(=O)[C@H]2[C@@H]1C(=O)NC[C@H](O)c1ccccc1")
0.109
>>> endpoint_value("CC(C)N1C(=O)C[C@@](C(=O)O)(c2ccc([N+](=O)[O-])cc2)[C@H]1c1ccc(CO)cc1")
-0.82
>>> endpoint_value("CC[C@@H]1C=C(C(=O)O)[C@H](c2ccccc2)N1S(=O)(=O)c1ccc(C)cc1")
-0.0393

Sample COC(=O)[C@@]1(Cc2ccccc2)[C@H]2c3cc(C(=O)N4CCCC4)n(CCc4ccccn4)c3C[C@H]2CN1C(=O)c1ccccc1 ; composite z-score observed: 0.758

Lab book: composite z-score of CCOC(=O)C1=CC[C@@H](c2ccccc2F)N(S(=O)(=O)c2ccc(C)cc2)[C@H]1c1ccccc1 noted as 0.685

composite z-score measured on CCOC(=O)C[C@H]1[C@H](OC(=O)Cc2ccc3c(c2)OCO3)[C@@H](NC(=O)c2ccc3ccccc3n2)c2cc(OCCCO)ccc2N1C(=O)c1ccccc1 = 0.803

composite z-score measured on C=CCOC(=O)[C@@]1(Cc2ccccc2)C[C@H]2CO[C@H](c3ccc(OC)cc3)N2C1=O = 0.3

###

assay_comment: JC-1 mitochondrial signal, unstimulated adipocytes – cell-based, JC-1 fluorescence, 3T3-L1 adipocytes, 24 h, 100 nL compound, profiling panel (AID 1168); also: test concentration not given here
settings: JC-1 mitochondrial fluorescence, higher = more signal, called active from +8 up or from −8 down
Use z-score to assign classes; range list: LOW = under -0.7, MEDIUM = from -0.7 up to 0.3, HIGH = 0.3 and over

// below: answered compounds
>>> label_class("COCCOC(=O)N1C(=O)[C@@]2(c3cc(C#CC4(O)CCCCCC4)ccc31)[C@H](C(=O)N1CCc3cc(OC)c(OC)cc3C1)[C@H]1C(=O)O[C@H](c3ccccc3)[C@H](c3ccccc3)N1[C@@H]2c1ccc(OCCO)cc1")
"HIGH"
>>> label_class("C=CCNC(=O)[C@@H]1[C@H]2C(=O)O[C@H](c3ccccc3)[C@H](c3ccccc3)N2[C@H](c2ccc(OCCO)cc2)[C@@]12C(=O)N(C(=O)OCCOC)c1ccc(C#Cc3ccc(OC)cc3)cc12")
"HIGH"

Enquiry: Hello team, could you let me know which band the following compound falls into: C=C(COC)/C(=C/C[C@H](OC(=O)c1ccncc1)c1ccccc1OCCO)c1cc(C(=O)OC)ccc1OC
Return: MEDIUM

Enquiry: Could you tell me which band CC1=C2[C@@H](CCc3ccccc3)OB(O)C[C@@H]2[C@@H]2C(=O)N(Cc3ccccc3)C(=O)[C@@H]2C1 belongs to?
Return: MEDIUM

Enquiry: Please report the category associated with Cn1cccc1C(O)C1C=CC2C(=O)N(c3ccccc3)C(=O)C2N1Nc1ccccc1 (stereo not given) , nothing else.
Return: LOW

Enquiry: Category of CC#CCO[Si](C#Cc1ccccc1)(C(C)C)C(C)C :
Return: MEDIUM

Enquiry: State the class of the compound shown: CCCNC(=O)[C@@H]1c2ccccc2C(=O)N(Cc2ccc(OC(F)(F)F)cc2)[C@H]1c1ccc(CO)cc1
Return: HIGH

Enquiry: Class (by measured z-score) for CCCCC(=C=CC[C@H](O)c1ccc(OCCO)cc1)CCO
Return: LOW

Enquiry: For the record [N-]=[N+]=Nc1ccccc1C[C@@]1(C(=O)N2CCOCC2)N=C(c2ccc(OCCCO)cc2)O[C@@H]1c1ccccc1 , report the class its z-score corresponds to.
Return: HIGH

Enquiry: Pick a category. Item: COC(=O)[C@@]1(Cc2ccc(OC)cc2)[C@H]2c3cc(C(=O)N(C)C)n(Cc4ccc(C)o4)c3C[C@H]2CN1C(=O)c1ccccc1
Return: MEDIUM

Enquiry: Assign a category based on measured z-score for COC(=O)[C@@]1(Cc2ccc(F)cc2)[C@H]2c3cc(C(=O)N4CCCC4)n(CCc4c[nH]c5ccccc45)c3C[C@H]2CN1C(=O)c1ccccc1 and give only the class name.
Return: MEDIUM

Enquiry: Class for [N-]=[N+]=NCc1ccccc1[C@@H]1OC(c2ccc(OCCCO)cc2)=N[C@]1(CCS(=O)(=O)c1ccccc1)C(=O)O ?
Return: LOW

Enquiry: Please report the category associated with O=C1O[C@@H](c2ccccc2)[C@@H](c2ccccc2)N2[C@@H](c3ccc(OCCO)cc3)[C@]3(C(=O)Nc4ccc(C#CC5=CCCCC5)cc43)[C@@H](C(=O)NC[C@H](O)c3ccccc3)[C@H]12 , nothing else.
Return: MEDIUM

Enquiry: Exercise: read the entry CCCC=C(CCC)[C@@H](NS(=O)(=O)CC12CCC(CC1=O)C2(C)C)c1ccc(C(=O)OC)cc1 (stereo not given in full) and state which class it falls under.
Return: MEDIUM
